- system-under-test: T1, human CD40 (human, UniProt P25942 21-277)
- T1 construct: whole, on cells; also called hCD40; TNFRSF5
- T1 sequence (P25942 21-277): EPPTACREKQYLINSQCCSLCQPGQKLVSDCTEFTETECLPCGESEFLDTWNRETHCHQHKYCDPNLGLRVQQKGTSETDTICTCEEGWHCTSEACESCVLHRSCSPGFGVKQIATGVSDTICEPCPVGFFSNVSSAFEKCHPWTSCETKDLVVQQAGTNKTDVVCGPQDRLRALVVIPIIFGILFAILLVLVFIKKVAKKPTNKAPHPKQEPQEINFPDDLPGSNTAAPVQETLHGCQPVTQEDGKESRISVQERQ
- protocol-details: FACS, Raji cells
experimental-readout: Maximum MFI (MFI)
Your answer should be a plain number; it is taken to be in MFI.

Which Maximum MFI value is on record for PR006497 (antibody, human IgG1, kappa, V domains shown, Variant of PR003379, L: N92Y; human IgG1 L234A, L235A, G237A) VH: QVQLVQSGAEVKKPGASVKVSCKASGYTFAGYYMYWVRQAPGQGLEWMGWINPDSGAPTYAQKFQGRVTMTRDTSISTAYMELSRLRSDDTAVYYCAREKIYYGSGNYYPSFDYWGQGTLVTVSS VL: DIQLTQSPSFLSASVGDRVTITCRASQGISSYLAWYQQKPGKAPKLLIYAASTLQSGVPSRFSGSGSGTEFTLTISSLQPEDFATYYCQQLYSYPWTFGQGTKVEIKR ?
9200

Check PR006511 (antibody, human IgG1, kappa, V domains shown, Variant of PR003379, L: S93N; human IgG1 L234A, L235A, G237A) VH: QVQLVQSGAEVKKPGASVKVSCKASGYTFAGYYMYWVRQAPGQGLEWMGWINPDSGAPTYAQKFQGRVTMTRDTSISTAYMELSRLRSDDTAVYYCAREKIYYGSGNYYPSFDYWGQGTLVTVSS VL: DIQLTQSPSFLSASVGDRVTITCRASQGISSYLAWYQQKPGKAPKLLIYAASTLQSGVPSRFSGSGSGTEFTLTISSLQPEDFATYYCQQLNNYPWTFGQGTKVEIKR too.
11800

Next binder up: PR006504 (antibody, human IgG1, kappa, V domains shown, Variant of PR003379, L: N92V; human IgG1 L234A, L235A, G237A) VH: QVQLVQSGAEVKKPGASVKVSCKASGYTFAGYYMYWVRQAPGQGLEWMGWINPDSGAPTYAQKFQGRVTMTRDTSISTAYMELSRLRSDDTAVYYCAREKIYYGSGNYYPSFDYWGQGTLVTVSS VL: DIQLTQSPSFLSASVGDRVTITCRASQGISSYLAWYQQKPGKAPKLLIYAASTLQSGVPSRFSGSGSGTEFTLTISSLQPEDFATYYCQQLVSYPWTFGQGTKVEIKR
12200

Also, PR006495 (antibody, human IgG1, kappa, V domains shown, Variant of PR003379, L: N92A; human IgG1 L234A, L235A, G237A) VH: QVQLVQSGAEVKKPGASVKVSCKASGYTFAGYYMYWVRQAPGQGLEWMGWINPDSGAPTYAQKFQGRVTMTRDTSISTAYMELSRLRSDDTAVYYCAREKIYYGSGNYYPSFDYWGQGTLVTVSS VL: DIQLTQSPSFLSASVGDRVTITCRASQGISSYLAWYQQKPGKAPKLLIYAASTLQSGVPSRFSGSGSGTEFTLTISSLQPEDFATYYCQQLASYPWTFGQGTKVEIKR please.
8870

Try this binder too: PR003379 (antibody, human IgG2, kappa, V domains shown, also called clone 18C4A12-1B1) VH: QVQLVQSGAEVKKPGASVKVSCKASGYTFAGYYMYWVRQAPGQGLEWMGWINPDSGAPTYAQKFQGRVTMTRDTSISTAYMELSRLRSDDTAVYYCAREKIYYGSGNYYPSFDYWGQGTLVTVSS VL: DIQLTQSPSFLSASVGDRVTITCRASQGISSYLAWYQQKPGKAPKLLIYAASTLQSGVPSRFSGSGSGTEFTLTISSLQPEDFATYYCQQLNSYPWTFGQGTKVEIKR
3700

Next: PR006496 (antibody, human IgG1, kappa, V domains shown, Variant of PR003379, L: N92F; human IgG1 L234A, L235A, G237A) VH: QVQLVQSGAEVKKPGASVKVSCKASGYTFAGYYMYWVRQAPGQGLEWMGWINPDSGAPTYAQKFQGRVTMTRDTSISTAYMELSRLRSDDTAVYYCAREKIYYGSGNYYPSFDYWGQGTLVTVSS VL: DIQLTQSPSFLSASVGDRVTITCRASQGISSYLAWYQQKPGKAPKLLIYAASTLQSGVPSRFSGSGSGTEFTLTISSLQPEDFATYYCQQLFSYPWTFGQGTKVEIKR
9300
